# Tested on: Yap1 mRNA
# protocol_summary: Antisense inhibition of human Yap1 in SNU-449 cells by modified oligonucleotides, single dose (Example 5, RTS36584)
# Format: cell-based
# test_parameters: Table 46; Yap1 mRNA as percent of untreated control, SNU-449 cells, single dose
Strand notation (5' to 3'): a small letter for the sugar, then the base; units joined by * are phosphorothioate-linked, units joined directly phosphodiester-linked; [ ] holds rarer units or linkages, { } end groups; capitals alone tell only the bases. e = 2'-O-(2-methoxyethyl) (MOE); k = constrained ethyl (cEt); [5mC] = 5-methylcytosine; d = 2'-deoxy (DNA)
readout: YAP1 (% UT)

{"columns": ["substance", "result"],
 "data": [
  ["1198808 (antisense kG*kA*dA*dA*dT*dT*dG*dT*d[5mC]*dT*d[5mC]*kA*eT*kG*e[5mC]*k[5mC]) [Compound 1198808]", "40 % UT"],
  ["1198852 (kT*k[5mC]*dA*dG*dA*dT*dT*dT*dA*dG*dG*kA*eT*kG*e[5mC]*kA; antisense) [Compound 1198852]", "41 % UT"]
]}

----------
The following substances are shown together with reported % UTC (Yap1 mRNA) values.
# Test system: Yap1 mRNA
# protocol_summary: Dose-dependent inhibition of human Yap1 in SNU-449 cells (Example 9, RTS36584)
# Format: cell-based
# test_parameters: 2000.00 nM, free uptake, approximately 48 hours
Strand notation (5' to 3'): a small letter for the sugar, then the base; units joined by * are phosphorothioate-linked, units joined directly phosphodiester-linked; [ ] holds rarer units or linkages, { } end groups; capitals alone tell only the bases. e = 2'-O-(2-methoxyethyl) (MOE); k = constrained ethyl (cEt); [5mC] = 5-methylcytosine; d = 2'-deoxy (DNA)

{"columns": ["substance", "% UTC (Yap1 mRNA)"],
 "data": [
  ["1198294 (kA*kG*kA*dG*dT*dA*dT*dG*dT*dG*dG*d[5mC]*kA*eA*kT*eA; antisense) [compound 1198294]", "5 % UTC"],
  ["1198664 (kG*k[5mC]*dT*dT*dT*dG*dG*dA*dA*dG*dA*dT*k[5mC]*eT*kG*eA; antisense) [compound 1198664]", "5 % UTC"],
  ["1198268 (kA*kA*dG*dT*dG*dT*dA*dT*dG*dT*d[5mC]*eA*eG*eA*kA*kG; antisense) [compound 1198268]", "5 % UTC"],
  ["1198818 (kT*kA*dT*dT*dA*dG*dA*dG*dT*dA*dT*kG*eT*kG*eG*k[5mC]) [compound 1198818]", "5 % UTC"],
  ["1198312 (kG*k[5mC]*kA*d[5mC]*dT*dT*dT*dT*dA*d[5mC]*dA*dT*kT*eA*kG*eG) [compound 1198312]", "5 % UTC"]
]}

----------
# Test system: Yap1 mRNA
# protocol_summary: Dose-dependent inhibition of human Yap1 in SNU-449 cells (Example 9, RTS36584)
# Type: cell-based
# test_parameters: 31.3 nM, free uptake, approximately 48 hours
Strand notation (5' to 3'): a small letter for the sugar, then the base; units joined by * are phosphorothioate-linked, units joined directly phosphodiester-linked; [ ] holds rarer units or linkages, { } end groups; capitals alone tell only the bases. e = 2'-O-(2-methoxyethyl) (MOE); k = constrained ethyl (cEt); [5mC] = 5-methylcytosine; d = 2'-deoxy (DNA); m = 2'-O-methyl
readout: % UTC (Yap1 mRNA) (% UTC)

{"columns": ["substance", "readout", "unit_descriptor", "numeric_value"],
 "data": [
  ["1198358 (kT*kT*kT*dA*dA*dA*dG*dT*dG*dT*dA*dT*kG*eT*k[5mC]*eA; antisense) [compound 1198358]", "% UTC (Yap1 mRNA)", "% UTC", 68],
  ["1198397 (k[5mC]*dA*d[5mC]*dT*dT*dT*dT*dA*d[5mC]*dA*dT*kT*eA*kG*eG*kA; antisense) [compound 1198397]", "% UTC (Yap1 mRNA)", "% UTC", 70],
  ["1198294 (kA*kG*kA*dG*dT*dA*dT*dG*dT*dG*dG*d[5mC]*kA*eA*kT*eA; antisense) [compound 1198294]", "% UTC (Yap1 mRNA)", "% UTC", 59],
  ["1198406 (kG*d[5mC]*dT*dT*dT*dG*dG*dA*dA*dG*dA*kT*e[5mC]*kT*eG*kA; antisense) [compound 1198406]", "% UTC (Yap1 mRNA)", "% UTC", 70],
  ["1198787 (kA*eG*kT*dG*dT*dA*dT*dG*dT*d[5mC]*dA*dG*eA*eA*kG*kA; antisense) [compound 1198787]", "% UTC (Yap1 mRNA)", "% UTC", 68],
  ["1197313 (kA*kG*kT*dG*mU*dA*dT*dG*dT*d[5mC]*dA*dG*dA*kA*kG*kA; antisense) [compound 1197313]", "% UTC (Yap1 mRNA)", "% UTC", 71],
  ["1198614 (kT*kA*kA*dA*dG*dT*dG*dT*dA*dT*dG*dT*k[5mC]*kA*kG*eA; antisense) [compound 1198614]", "% UTC (Yap1 mRNA)", "% UTC", 69]
]}
